# assayed_target: BDNF/NT-3 growth factors receptor (Homo sapiens) (UniProt Q16620);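 also: each value is a mean percent inhibition of TrkB kinase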
# Sequence (Q16620 32-822 limits assumed): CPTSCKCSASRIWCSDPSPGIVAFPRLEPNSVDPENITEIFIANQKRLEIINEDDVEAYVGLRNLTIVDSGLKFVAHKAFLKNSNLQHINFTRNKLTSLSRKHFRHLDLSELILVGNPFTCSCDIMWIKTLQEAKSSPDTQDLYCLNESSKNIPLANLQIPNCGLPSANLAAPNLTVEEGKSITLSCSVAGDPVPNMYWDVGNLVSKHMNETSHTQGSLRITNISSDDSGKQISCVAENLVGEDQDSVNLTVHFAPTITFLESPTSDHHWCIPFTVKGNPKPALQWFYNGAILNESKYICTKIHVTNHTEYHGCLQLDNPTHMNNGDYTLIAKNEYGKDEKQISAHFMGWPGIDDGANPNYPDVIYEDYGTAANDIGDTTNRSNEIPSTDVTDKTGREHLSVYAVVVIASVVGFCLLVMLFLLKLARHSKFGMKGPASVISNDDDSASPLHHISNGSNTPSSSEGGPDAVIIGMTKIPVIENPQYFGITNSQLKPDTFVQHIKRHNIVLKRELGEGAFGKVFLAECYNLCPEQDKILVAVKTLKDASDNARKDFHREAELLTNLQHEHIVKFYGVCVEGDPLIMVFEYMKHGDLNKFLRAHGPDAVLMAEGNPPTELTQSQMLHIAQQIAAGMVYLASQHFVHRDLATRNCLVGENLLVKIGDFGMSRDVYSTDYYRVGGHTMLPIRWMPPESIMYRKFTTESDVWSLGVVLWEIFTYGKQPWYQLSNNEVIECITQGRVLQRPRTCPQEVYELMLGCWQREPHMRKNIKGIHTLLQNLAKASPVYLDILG
# stated_conditions: at 0.1 µM
readout_label: inhibition (%)
One number for each entry, in %.

Please review the entries below; each comes with its answer.
• Cc1cc(-c2ccccn2)cc(C)c1/C=C/c1cncc(-c2nn[nH]n2)c1 = 3.94
• c1ccc(Cc2nc3ccc(Nc4ncnc5ccccc45)cc3[nH]2)cc1 = 2.44
• NC(=O)c1cccc(Nc2nccc(Nc3cccc(F)c3)n2)c1 = 1.46
• Cc1ccc2c(-c3ccnc(Nc4ccc5c(c4)OCCO5)n3)c(-c3ccc(C(F)(F)F)cc3)nn2n1 = -1.22

We next turn to a different compound, shown below.
Give inhibition for NS(=O)(=O)c1ccc(NC=C2C(=O)Nc3ccc4ncsc4c32)cc1
31.8

These entries and their values trace back to ChEMBL document CHEMBL1961873.
